Tested on: NCI-H460 lung
Return exactly one item of active, inactive

Outcome? CC(=O)OCC1OC(OC2CC3C(C)(C)C(O)CC[C@]3(C)C3CCC45CC4(CC[C@H]5C(C)CC(O)C4OC4(C)C)[C@]23C)C(O)C(O)C1O (stereo partly specified) inactive

Queued: CSc1ccc2c3c(n(C[C@H](O)CO)c(=O)c2c1)-c1ccccc1C3=O inactive

Queued: O=C(Nc1ccccc1O)c1ccc(Oc2cccc(C(=O)Nc3ccccc3O)c2)cc1 inactive

Queued: O=C(O)c1ccc(N/C=C2\C(=O)c3ccccc3OC2O)cc1O (stereo unspecified) inactive

Queued: COC(=O)[C@]12CC[C@@H](C)[C@H](C)[C@@H]1C1=CC[C@@H]3[C@@]4(C)C=C(O)C(=O)[C@@]5(C)COC(=C54)C[C@@]3(C)[C@]1(C)CC2 inactive

Queued: O=c1[nH]cnc2[nH]ncc12 inactive

Queued: COc1ccc(Cl)cc1NC(=O)C(Br)C(Br)C(=O)O (stereo unspecified) inactive

Queued: O=C(Cc1cccc(OC(F)(F)F)c1)Nc1ccc(CCCCc2nnc(NC(=O)Cc3ccccn3)s2)nn1 inactive

Queued: COc1ccc(C(=O)c2cc3c(OC)c(OC)c(OC)cc3[nH]2)cc1 inactive

Queued: CCN1c2ccccc2C(Cl)(c2ccc(N(C)C)cc2)c2ccccc21 inactive

Queued: O=C(N/N=C/c1ccc([N+](=O)[O-])cc1)c1ccc2nc(-c3ccc(Cl)cc3)[nH]c2c1 inactive

Queued: O=C(N/N=C/c1ccccc1O)C(=O)Nc1ccc(F)cc1 inactive

Queued: O=C(c1ccco1)c1c(C(F)(F)F)n([O-])c2ccccc2[n+]1=O active

Queued: COc1ccc2c(c1)C(c1ccccc1Cl)=Nc1c(n[nH]c1C)N2 inactive

Queued: O=C(Nc1ccc(Cl)cc1)c1cc(-c2ccc(Cl)cc2)c2sc(=O)[nH]c2n1 inactive

Queued: C#CC(F)(F)[C@]1(O)CC[C@H]2[C@@H]3CCC4=CC(=O)CCC4=C3[C@@H](c3ccc(C(C)=O)cc3)C[C@@]21C inactive

----------
System: UACC-257 melanoma
experiment description: NCI tumour cell line growth inhibition, 48 h; in the data active = GI50 below about 0.43 µM; inactive = the rest
Return exactly one item of active, inactive

Outcome? O=C(N/N=C/c1ccccc1O)C(=O)Nc1ccc(F)cc1 inactive

Queued: COc1cc2c[n+](C)c3c4ccccc4ccc3c2cc1OC (tested in a mixture with another compound) inactive

Queued: COc1ccc2c(c1)C(c1ccccc1Cl)=Nc1c(n[nH]c1C)N2 inactive

Queued: CC(=O)O/N=C1/C(c2c(O)[nH]c3cc(Br)ccc23)=Nc2ccccc21 inactive

Queued: O=C(O)c1cc2cc(OCc3ccccc3)c(OCc3ccccc3)cc2[nH]1 inactive

Queued: COc1cc(-c2nc3sc4c(c3c(=O)[nH]2)CCCCCC4)cc(OC)c1OC inactive

Queued: CO[C@@H]1/C=C(C)/C=C/[C@@H](C)/C=C(\C)C(=O)OC(/C(C)=C/C=C(\C)CNC(=O)[C@H](CO)NC=O)[C@@H](C)/C=C/C=C/[C@H](OC)CC/C=C(C)/C=C/C1 (stereo partly drawn) active

Queued: N#C[S-].[Nd+3].c1ccc(-c2ccccn2)nc1.c1ccc(-c2ccccn2)nc1.c1ccc(-c2ccccn2)nc1 inactive

----------
Tested on: A498 renal
experiment description: NCI tumour cell line growth inhibition, 48 h; in the data active = GI50 below about 0.43 µM; inactive = the rest
Return exactly one item of active, inactive

Outcome? CCN1c2ccccc2C(Cl)(c2ccc(N(C)C)cc2)c2ccccc21 inactive

Queued: Cc1ccc2c(O)c(O)cc(NC(C)CCCN)c2n1 (stereo not given) inactive

Queued: COc1cc(/C=C2\CN(C)C/C(=C\c3cc(CN4CCCCC4)c(O)c(OC)c3)C2=O)cc(CN2CCCCC2)c1O inactive

Queued: CCCCCCCCCCCCSC(=N)N inactive

Queued: C=C(c1ccc(C(=O)N(C)c2ccccc2N)cc1)C(C)N1C(=O)[C@H]2CCCN2C(=O)c2ccccc21 (stereo not given in full) inactive

Queued: NC1=NC(c2ccc(Cl)cc2)C2=C(N1)/C(=C/c1ccc(Cl)cc1)CCC2 (stereo not given) inactive

Queued: COc1ccc(-n2c3c(c4c(CN5CCOCC5)c(O)ccc42)CCc2ccccc2C3=O)cc1 inactive

Queued: COc1ccccc1/C=N\N=C(N/N=C/c1ccccc1OC)N/N=C/c1ccccc1OC inactive

Queued: CN(C)C(=O)c1cc2cnc(Nc3ccc(-c4csc5c(=O)cc(N6CCOCC6)oc45)cc3)nc2n1C1CCCC1 active

Queued: COc1ccc2c(c1)C(c1ccccc1Cl)=Nc1c(n[nH]c1C)N2 inactive

----------
Provide the recorded TGI for the entries that follow.
Test system: SK-MEL-28 melanoma
experiment description: NCI tumour cell line growth inhibition, 48 h
Number only, in µM; omit the unit.

Using the record for CO[C@@H]1/C=C(C)/C=C/[C@@H](C)/C=C(\C)C(=O)OC(/C(C)=C/C=C(\C)CNC(=O)[C@H](CO)NC=O)[C@@H](C)/C=C/C=C/[C@H](OC)CC/C=C(C)/C=C/C1 (some centres undefined) , report its TGI. 11.4

Queued: CCOC(=O)/C=C(/C(=O)OCC)n1cc(C)c(=O)n(Cc2cn(COCCOC(C)=O)nn2)c1=O 57.1

Queued: CCCCCCCCCCCCCCCCCCNc1ccn(C2OC(COP(=O)(O)OCC3OC(n4cc(C)c(=O)[nH]c4=O)CC3N=[N+]=[N-])C(O)C2O)c(=O)n1 (centres undefined) 36.8

Queued: c1ccc2c(c1)[nH]c1cnc3c4cccnc4[nH]c3c12 38.4

----------
Test system: HCT-116 colon
experiment description: NCI tumour cell line growth inhibition, 48 h
Provide the recorded TGI for the entries that follow.

Enter reported TGI observed with HCT-116 colon for C1OC1CO[C@@H]1CO[C@H]2[C@@H]1OC[C@H]2OCC1CO1 (stereo not given in full) > 100 µM

Queued: Cc1ccc(-c2cc(C3=CC(=O)C=CC3=O)n(-c3ccc(S(N)(=O)=O)cc3)n2)cc1 33 µM

Queued: O=C(Cc1cccc(OC(F)(F)F)c1)Nc1ccc(CCCCc2nnc(NC(=O)Cc3ccccn3)s2)nn1 > 100 µM

Queued: O=C1COc2ccc([N+](=O)[O-])cc2C(=O)C1 > 10 µM

Queued: COC(=O)C1(F)C(=O)NC(=O)NC1O (stereo not given) > 100 µM

----------
Provide the recorded TGI for the entries that follow.
Test system: LOX IMVI melanoma
experiment description: NCI tumour cell line growth inhibition, 48 h

Enter reported TGI observed with LOX IMVI melanoma for C=C(C)C(=O)[C@@]12C(=O)[C@@H](C)CC[C@H]1[C@H](C)C[C@@H]2C=C(C)C 37 µM

Queued: CCc1ccc2[nH]c(O)c(-c3[nH]c4ccccc4c3N=O)c2c1 26.7 µM

Queued: COc1ccccc1NC(=O)C1=C(C)NC(C)=C(C(=O)Nc2ccccc2OC)C1c1ccc(C)cc1 > 100 µM

Queued: Cc1cc(S(=O)(=O)O)c(NC(=O)C(=O)C2C=CCS2(=O)=O)cc1Cl (configuration not stated) > 100 µM

Queued: Cc1ccc(SC2=CC(=O)c3nc4ccccc4c4ccnc2c34)cc1 > 100 µM

Queued: CSC1=C(C#N)C(=O)N(c2ccc(C)cc2)C(=S)C1C#N (configuration not stated) > 100 µM

Queued: COC(=O)/C=C(/C(=O)OC)c1c(C)c(C)c2c(C)cc(C)cc(C)c1-2 > 100 µM

Queued: O=c1[nH]nc(-c2ccccc2)n1/N=C/c1c(O)ccc2ccccc12 > 100 µM

Queued: CCOC(=O)CNC(=O)C(C)NC(=O)C(NC(=O)CC(c1ncc[nH]1)c1ncc[nH]1)C(C)CC (configuration not stated) > 100 µM

Queued: O=C1CN(C(=O)c2ccccc2)Cc2[nH]c3ccccc3c21 > 100 µM

Queued: [N-]=[N+]=CC(=O)OCC1SCCCS1 > 100 µM

Queued: O=Nc1ccc2ccccc2c1O 5.71 µM

Queued: CCOC(=O)/C=C(/C(=O)OCC)n1cc(C)c(=O)n(Cc2cn(COCCOC(C)=O)nn2)c1=O 47.8 µM

Queued: COP(=O)(OC)C(Cc1c[nH]c2ccccc12)NC(=O)OCc1ccccc1 (configuration not stated) > 100 µM

Queued: COC(=O)n1c(=O)n(-c2ccccc2)c(=O)n1C(=O)OC > 100 µM

Queued: Cc1cc(C)c(O)c(CN(C)Cc2cc(Cl)cc(Cl)c2O)c1 17.1 µM

Queued: Nc1ccccc1N/C=C\C(=O)C(Cl)(Cl)Cl 29.7 µM

Queued: C=CCC(N[C@H](CO)c1ccccc1)c1cn(C(=O)OCC)c2ccccc12 (some centres not stated) 30.1 µM

Queued: C=CC(=O)N[C@H]1CCOC[C@H]1Nc1ncc2cc(-c3c(Cl)c(OC)cc(OC)c3Cl)ccc2n1 48.9 µM

Queued: CC(C)(C)C(=O)ON1N=NC2C3CC(OCc4ccccc4)(OCc4ccccc4)C(O3)C21 (configuration not stated) 32.8 µM

Queued: C=C(c1ccc(C(=O)N(C)c2ccccc2N)cc1)C(C)N1C(=O)[C@H]2CCCN2C(=O)c2ccccc21 (some centres not stated) > 100 µM

Queued: C=CCC1(O)c2cccc(NCCO)c2C(=O)c2c(NCCO)cccc21 > 100 µM

Queued: Cc1sc(/N=C/c2c[nH]c3ccccc23)c(C#N)c1C > 100 µM

Queued: N#Cc1c(N2CCCC2)ncn(Cc2ccccc2)c1=O > 100 µM

Queued: CC(=O)O[C@]12CCCC1C1(O)C(O)CCCC12 (some centres not stated) > 100 µM

Queued: O=c1c2cc(I)ccc2nc(Sc2ncccc2[N+](=O)[O-])n1Cc1ccccc1 > 100 µM

Queued: COc1ccc(C(=O)c2cc3c(OC)c(OC)c(OC)cc3[nH]2)cc1 > 100 µM

Queued: O=c1cc(N2CCCC2)[nH]c(=O)n1-c1cccc(C(F)(F)F)c1 > 100 µM

Queued: COc1cc(/C=C2\CN(C)C/C(=C\c3cc(CN4CCCCC4)c(O)c(OC)c3)C2=O)cc(CN2CCCCC2)c1O 6.19 µM

Queued: C/C(=N\N=C(/[Se])N1CC2CCC(CC2)C1)c1ccccn1 0.64 µM

Queued: CO[C@@H]1CC(=O)C2(CC(=O)O[C@@H]2/C=C(\C)CCC=C(C)C)C[C@@H]1O (some centres not stated) 1.57 µM

Queued: COc1ccccc1/C=N\N=C(N/N=C/c1ccccc1OC)N/N=C/c1ccccc1OC 11.3 µM

Queued: Oc1[nH]c2ccccc2c1N=Nc1nc(-c2ccc(Cl)c(Cl)c2)cs1 > 100 µM

Queued: NC(=O)C(c1ccccc1)N1CCOCC1 (configuration not stated) > 100 µM

Queued: Cc1ccc(C(C2C(=O)N(C)C(=O)N(C)C2=O)C(F)(F)C(=O)N(C)C)cc1 (configuration not stated) > 100 µM

Queued: O=C(O)c1cc(N=Cc2ccccc2O)cc(C(=O)O)c1 > 100 µM

Queued: NCCNc1cccc2ccccc12 > 100 µM

Queued: COc1cccc2c1C(=O)c1c(O)c3c(c(O)c1C2=O)C[C@@](O)(C(=O)CO)C[C@@H]3OC1C[C@H](N)[C@H](O)[C@H](C)O1 (some centres not stated) 0.181 µM

Queued: CCCCCCCCCCCCCCCCCCNc1ccn(C2OC(COP(=O)(O)OCC3OC(n4cc(C)c(=O)[nH]c4=O)CC3N=[N+]=[N-])C(O)C2O)c(=O)n1 (configuration not stated) 37.8 µM

Queued: COC(=O)C1(F)C(=O)NC(=O)NC1O (configuration not stated) > 100 µM

Queued: [N-]=[N+]=NCc1cccc(Nc2cc(=O)[nH]c(=O)[nH]2)c1 > 100 µM

Queued: O=C1C=C(Br)c2c(Br)sc(Br)c21 5.77 µM
